# Test system: MOLT-4 leukemia
# Assay Summary: NCI-60 one-dose screen, 48 h (100 = growth as untreated, 0 = no growth, -100 = all killed)
# Condition Label: 10 µM unless noted
About 83,000 compounds went through this panel and 20% of them were active in at least one assay; those are over-represented in the sample as a whole. Calls of active or inactive are those of the source. How the source made its calls: active means growth percent below 10; inactive means the rest.
Would you mind telling me the reported growth of each entry?

Examples with answers:
{"Smiles Repr": "Cn1ccnc1C(=O)/C=C/c1ccc(C(=O)Nc2ccccc2O)cc1", "Tested Target": "MOLT-4 leukemia", "Experimental Endpoint": "growth", "Result": "17% (inactive)"}
{"Smiles Repr": "Cc1ccc(-c2nc(N3CCCNCC3)c3oc(-c4ccccc4)nc3n2)cc1", "Tested Target": "MOLT-4 leukemia", "Experimental Endpoint": "growth", "Result": "-73.2% (active)"}
{"Smiles Repr": "CS(=O)(=O)c1ccc(-c2cnn3ccc(-c4cccc(S(=O)(=O)C5CC5)c4)nc23)cc1", "Tested Target": "MOLT-4 leukemia", "Experimental Endpoint": "growth", "Result": "15.3% (inactive)"}
{"Smiles Repr": "C1CN(SSN2CCOCC2)CCO1", "Tested Target": "MOLT-4 leukemia", "Experimental Endpoint": "growth", "Result": "50.4% [100 µM] (inactive)"}

# evaluate next
Ask: Suppose we examine the molecule CN(C)S(=O)(=O)c1cccc(C(=O)Nc2nc(-c3ccc(F)c(F)c3)cs2)c1 ; what growth value has been reported?
Result: 28.2% (inactive)

====

# System: NCI/ADR-RES ovarian
# Assay Summary: NCI-60 one-dose screen, 48 h
# Condition Label: 10 µM unless noted
The panel holds about 83,000 compounds, 20% with a hit somewhere; the sample as a whole holds those more often. Activity calls are given as the source filed them. Rule for the calls: active = growth percent below 10; inactive = the rest.
Parameter call: string, one of active, inactive

Look over these answered cases.
{"Molecule": "CCC(C)(C)C(=O)O[C@H]1C[C@@H](C)C=C2C=C[C@H](C)[C@H](CC[C@@H]3CC(SCCN)CC(=O)O3)[C@H]21 (some centres not stated)", "Group": "inactive"}
{"Molecule": "O=C1/C(=C\\c2ccc3nccnc3c2)SC(=S)N1CCc1ccc(O)cc1", "Group": "inactive"}
{"Molecule": "O=C(O)CCN1C(=O)/C(=C/C(Cl)=C/c2ccccc2)SC1=S", "Group": "inactive"}
{"Molecule": "CNC(=O)c1ccccc1Oc1nc(Nc2cc(OC)c(OC)c(OC)c2)ncc1Br", "Group": "inactive"}
{"Molecule": "CCOCCNC1=C(Cl)C(=O)c2ccccc2C1=O", "Group": "inactive"}
{"Molecule": "CCn1c(SCC(=O)N/N=C(\\C)c2ccc(Cl)cc2)nc2c1c(=O)n(C)c(=O)n2C", "Group": "inactive"}
{"Molecule": "CN(c1cc2ncc(=O)[nH]c2cc1NC(N)=NCc1ccc(Cl)cc1)C1CCCCC1", "Group": "inactive"}
{"Molecule": "COC(CC(F)F)c1cn(S(=O)(=O)c2ccc(C)cc2)c2ccccc12 (configuration not stated)", "Group": "inactive"}
{"Molecule": "N#Cc1c(-c2ccccc2)cc(-c2ccccc2)n(CCCC(=O)Nc2ccccc2N)c1=O", "Group": "inactive"}
{"Molecule": "CCCn1cc2c(=O)nc3sc(Cc4ccccc4)c(C)n3c2n1", "Group": "inactive"}

Continue with the molecule presented below.
Ask: I'd appreciate the recorded outcome for Cc1cc(=O)n(C(=O)Nc2ccccc2Cl)c2cc(O)ccc12 from this test.
Result: inactive

====

# System: HCC-2998 colon
# Assay Summary: NCI-60 one-dose screen, 48 h
# Condition Label: 10 µM unless noted
About 83,000 compounds went through this panel and 20% of them were active in at least one assay; those are over-represented in the sample as a whole. The source made the active and inactive calls. The calls were made as follows: active = growth percent below 10; inactive = the rest.
Parameter call: string, one of active, inactive

Look over these answered cases.
{"Compound": "O=c1c2cccc3c(N4CCCC4)ccc(c32)c2nc3ccccc3n12", "Group": "inactive"}
{"Compound": "CN(/C(N)=N/N=C/c1c2ccccc2cc2ccccc12)C1CCCCC1", "Group": "active"}
{"Compound": "Cn1ccnc1C(=O)/C=C/c1ccc(C(=O)Nc2ccccc2O)cc1", "Group": "inactive"}
{"Compound": "CCSC(SCC)c1ccc(Cl)cc1", "Group": "inactive"}
{"Compound": "O=C(Nn1c2c(sc1=NC1CC1)C(=O)c1ccccc1C2=O)c1cc2ccc1CCc1ccc(cc1)CC2", "Group": "inactive"}
{"Compound": "C=C(CBr)[C@@H]1CC[C@]2(C(=O)O)CC[C@]3(C)[C@H](CC[C@@H]4[C@@]5(C)CCC(=O)C(C)(C)[C@@H]5CC[C@]43C)[C@@H]12", "Group": "inactive"}
{"Compound": "O=C(/C=C/c1ccccc1)Nc1ncc(Cc2ccccc2Cl)s1", "Group": "inactive"}
{"Compound": "COc1ccc(Cc2cnc(NC(=O)c3cc(C)oc3C)s2)cc1", "Group": "inactive"}
{"Compound": "COc1ccc2c(c1)CC[C@H](O)/C2=C/c1cc(OC)c(OC)c(OC)c1", "Group": "inactive"}
{"Compound": "Cc1cc(N2CCCCC2)cc(C)c1-c1csc(NC(=O)c2ccncc2)n1", "Group": "inactive"}

Ask: I'd appreciate the recorded outcome for COc1ccc(CN2c3ccccc3Sc3ccccc32)cc1F from this test.
Result: inactive

Ask: I'd appreciate the recorded outcome for CCCC/C=C/[C@@H]1C[C@H]1CCO from this test.
Result: inactive

Ask: I'd appreciate the recorded outcome for CC(C)=CCC[C@](C)(O)[C@H]1CC[C@]2(C)[C@@H]1CC[C@@H]1[C@@]3(C)C/C(=C/c4ccco4)C(=O)C(C)(C)[C@@H]3CC[C@]12C from this test.
Result: inactive

Ask: I'd appreciate the recorded outcome for COc1ccc(/C=N/C2=C(C#N)C(c3ccccc3)c3ccc4ccccc4c3O2)cc1 (stereo not drawn) from this test.
Result: active

Ask: I'd appreciate the recorded outcome for COc1ccccc1CNc1c2ccccc2nc2ccccc12 from this test.
Result: inactive

Ask: I'd appreciate the recorded outcome for COC(=O)c1nc(-c2ccccc2)oc1S(=O)(=O)Cc1ccccc1 from this test.
Result: inactive

Ask: I'd appreciate the recorded outcome for CCCNc1nc2ccccc2c2c1S(=O)(=O)c1ccc(Cl)cc1C2=O from this test.
Result: inactive

Ask: I'd appreciate the recorded outcome for O=C(N(c1ccccc1)c1ccccc1)n1cc(I)c2nc(Cl)nc(Cl)c21 from this test.
Result: inactive

Ask: I'd appreciate the recorded outcome for C=CCc1c(O)c(C(=O)/C=C/c2ccccc2)c(OC)c2ccoc12 from this test.
Result: inactive

Ask: I'd appreciate the recorded outcome for C#CCNC(=O)[C@H](CC)[C@H]1CC[C@H](C)[C@H]([C@@H](C)[C@H](O)[C@H](C)C(=O)[C@H](CC)C2O[C@]3(C=CC(=O)[C@]4(CC[C@@](C)([C@H]5CC[C@](O)(CC)[C@H](C)O5)O4)O3)[C@H](C)C[C@@H]2C)O1 (stereo partly drawn) from this test.
Result: inactive

Ask: I'd appreciate the recorded outcome for Fc1cccc(Oc2ccc(Nc3ncnc4ccc(OCCCN5CCOCC5)cc34)cc2Cl)c1 from this test.
Result: inactive

Ask: I'd appreciate the recorded outcome for COc1ccc(Nc2ncc(Br)c(NCCCNC(=O)C3CCCC3)n2)cc1 from this test.
Result: inactive

Ask: I'd appreciate the recorded outcome for C#COc1cccc(Nc2c(C#N)cnc3ncc(NC(=O)CCl)cc23)c1 from this test.
Result: inactive

Ask: I'd appreciate the recorded outcome for CCN1C(=O)N(CC)C2C1NN=c1s/c(=C\c3ccccc3F)c(=O)n12 (stereo not drawn) from this test.
Result: inactive

Ask: I'd appreciate the recorded outcome for CC1=C2[C@@H](CC1)[C@]1(C)O[C@@](C(C)C)(C[C@H]1OC(=O)[C@H](C)O)[C@H]2OC(=O)/C=C/c1ccccc1 from this test.
Result: inactive

Ask: I'd appreciate the recorded outcome for Cc1ccc(NC(=O)c2sc3nc(C)c(Br)c(C)c3c2N)cc1 from this test.
Result: inactive

Ask: I'd appreciate the recorded outcome for O=C(/C=C/c1ccco1)Nc1ncc(Cc2cccc(C(F)(F)F)c2)s1 from this test.
Result: inactive

Ask: I'd appreciate the recorded outcome for COc1ccc(C2CC(c3ccc(Nc4nc(Nc5ccccc5)nc(Nc5ccccc5)n4)cc3)=NN2C(C)=O)cc1 (stereo not drawn) from this test.
Result: inactive

Ask: I'd appreciate the recorded outcome for CCOC(=O)C1=C(c2ccccc2)N=C2SC=C(c3ccc(Cl)cc3)N2C1c1ccc(Cl)cc1 (stereo not drawn) from this test.
Result: inactive

Ask: I'd appreciate the recorded outcome for O=C(N/N=C/c1ccc(Cl)cc1)c1[nH]c2ccc(Cl)cc2c1-c1ccccc1 from this test.
Result: inactive

====

# System: MCF7 breast
# Assay Summary: NCI-60 one-dose screen, 48 h (100 = growth as untreated, 0 = no growth, -100 = all killed)
# Condition Label: 10 µM unless noted
Compounds without any hit were thinned out: in the full panel of roughly 83,000, 20% have a hit.
Experimental Endpoint: growth (%)
One number for each entry, in %.

{"Compound": "COc1ccc(/C=N/C2=C(C#N)C(c3ccccc3)c3ccc4ccccc4c3O2)cc1 (stereo unspecified)", "growth [%]": 12.2}
{"Compound": "COc1cc(C2c3cc(OC(C)=O)c(OC)cc3CC3C(=O)OCC32)ccc1OC(C)=O (stereo unspecified)", "growth [%]": 101}
{"Compound": "O=C(c1ccccc1)c1ccc(C2CCCCC2)cc1", "growth [%]": 95.7}
{"Compound": "Cc1ccccc1/C=C/C(=O)c1cccc(OCCCCOc2cccc(C(=O)/C=C/c3ccccc3C)c2)c1", "growth [%]": 41.5}
{"Compound": "O=C(Nc1ccccc1)Nc1ncnc2c1ncn2-c1ccc(Cl)cc1", "growth [%]": 82.5}
{"Compound": "Cc1nc2sc(C(=O)Nc3cccc(Br)c3)c(N)c2cc1C(O)c1ccccc1 (stereo unspecified)", "growth [%]": 21.9}

Provide growth values for the following items, in order.
1. C=CCc1c(O)c(C(=O)/C=C/c2ccccc2)c(OC)c2ccoc12
2. CCOC(=O)C1=C(C)NC(=O)NC1c1c(Cl)n(CCCl)c2ccccc12 (stereo unspecified)
3. COc1ccc(C/C(C)=C(/c2ccc(OCCN(C)C)cc2)c2ccc(OC(=O)NCc3ccccc3)cc2)cc1
4. C=CCSc1nnc(NC(=O)CCl)s1
5. NNc1nc(-c2cccnc2)nc2c1sc(=S)n2-c1ccccc1

Result:
1: 16.1; 2: 98.7; 3: 21.2; 4: 90.1; 5: 92.5
